# RUN DESCRIPTION: ACEA_ER_AUC_viability: ACEA Biosciences xCELLigence Real-Time Cell Analysis on Estrogen Receptor Agonism for Viability (AID 2283782);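 note: continuous compound exposure with impedance area under curve over 80 h; hit means loss of impedance signal meaning reduced cell growth or viability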
Results filed as inconclusive are left out. Calls of active or inactive are those of the source. Rule for the calls: active = hit-call score of the fitted dose curve at least 0.9, where 1 is the maximum; inconclusive = response in the unintended direction; inactive = score below 0.9.
READOUT TYPE: AC50

O=S(=O)(O)CCC(F)(F)C(F)(F)C(F)(F)C(F)(F)C(F)(F)C(F)(F)F | inactive
COc1cc2c(c(OC)c1OC)-c1ccc(OC)c(=O)cc1[C@@H](NC(C)=O)CC2 | 0.00238 µM (active)
Cc1cccc(O)c1C | inactive
OCc1c[nH]c2ccccc12 | 87 µM (active)

Quick one: AC50 for OC(O)(C(F)C(O)(O)C(F)(F)F)C(F)(F)F ? 75 µM (active)

Look at this molecule and give its reported AC50. O=C(O)c1cccc(C[C@@H]2COc3ccc(OCc4nc5cc(F)ccc5s4)cc3[C@@H]2O)c1 inactive

// AC50 lookup, key: CCCCCCCCCCCCCCCCOS(=O)(=O)O inactive

Item under review: C[C@@H](Oc1ccc(CNC(=O)c2cccnc2Oc2ccc3c(c2)OCO3)c(F)c1)C(=O)O . Reported AC50? inactive

I have this molecule here, FC(F)=C(F)C(F)(F)C(F)(F)C(F)(F)C(F)(F)C(F)(F)C(F)(F)F , and I need its recorded AC50. inactive

###

# RUN DESCRIPTION: ACEA_AR_antagonist_AUC_viability: ACEA Biosciences xCELLigence Real-Time Cell Analysis on Androgen Receptor Antagonism for Viability (AID 2283776);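 note: 22Rv1 human prostate cancer cells growing on impedance electrode plates; area under impedance growth curve at 80 h after dosing as viability; hits lower the growth signal relative to DMSO meaning cytotoxicity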
Records with an inconclusive call do not appear. Activity calls are given as the source filed them. Rule for the calls: active = hit-call score of the fitted dose curve at least 0.9, where 1 is the maximum; inconclusive = response in the unintended direction; inactive = score below 0.9.
Parameter call: string, one of active, inactive

Example results:
O=c1[nH]cnc2c1ncn2[C@H]1CC[C@@H](CO)O1 | inactive
CCCOc1ccc(S(=O)(=O)N2CCN(CC)CC2)cc1-c1nc2c(CC)n(Cc3ccccn3)nc2c(=O)[nH]1 | inactive
Cc1ccc(S(=O)(=O)NC(=O)NN2CCCCCC2)cc1 | inactive

Recorded test outcome, item Cc1nccn1-c1ccc(Sc2cccc(C3(C(N)=O)CCOCC3)c2)cc1 active

Hi, do you know how c1ccc2c(c1)-c1cccc3c1c-2cc1ccccc13 came out in this test? active

###

# Read-out: Interferon-gamma inducible Protein 10 (IP10), CXCL10 (gene 3627)
# RUN DESCRIPTION: BSK_hDFCGF_IP10: BioMAP Diversity Plus: hDFCGF Assay for Interferon-gamma inducible Protein 10 (IP10) Biomarker Activity (AID 2283053)
# MEASUREMENT CONDITIONS: primary human foreskin fibroblasts; actives raise or lower the signal
Calls of active or inactive are those of the source. The calls were made as follows: active = hit-call score of the fitted dose curve at least 0.9, where 1 is the maximum; inactive = score below 0.9.
Outcomes you can answer with include only these: true for active, false for inactive

The examples below pair each entry with its known result.
CC(C)c1nnc2ccc(-c3ocnc3-c3cc(F)ccc3F)cn12 | true
NC(=O)NN=Cc1ccc([N+](=O)[O-])o1 | false
C[Si](C)(C)C(F)(F)C(F)(F)C(F)(F)F | false

How was CCCCN1C(=O)[C@@H]([C@H](O)C2CCCCC2)NC(=O)C12CCN(Cc1ccc(Oc3ccc(C(=O)O)cc3)cc1)CC2 classified in this test? true

Kindly provide the recorded test outcome for the following compound: CCCCOC(=O)c1ccccc1 false

###

# TARGET DESC: Estrogen receptor (Homo sapiens) (UniProt P03372)
# Sequence (P03372 whole entry, looked up): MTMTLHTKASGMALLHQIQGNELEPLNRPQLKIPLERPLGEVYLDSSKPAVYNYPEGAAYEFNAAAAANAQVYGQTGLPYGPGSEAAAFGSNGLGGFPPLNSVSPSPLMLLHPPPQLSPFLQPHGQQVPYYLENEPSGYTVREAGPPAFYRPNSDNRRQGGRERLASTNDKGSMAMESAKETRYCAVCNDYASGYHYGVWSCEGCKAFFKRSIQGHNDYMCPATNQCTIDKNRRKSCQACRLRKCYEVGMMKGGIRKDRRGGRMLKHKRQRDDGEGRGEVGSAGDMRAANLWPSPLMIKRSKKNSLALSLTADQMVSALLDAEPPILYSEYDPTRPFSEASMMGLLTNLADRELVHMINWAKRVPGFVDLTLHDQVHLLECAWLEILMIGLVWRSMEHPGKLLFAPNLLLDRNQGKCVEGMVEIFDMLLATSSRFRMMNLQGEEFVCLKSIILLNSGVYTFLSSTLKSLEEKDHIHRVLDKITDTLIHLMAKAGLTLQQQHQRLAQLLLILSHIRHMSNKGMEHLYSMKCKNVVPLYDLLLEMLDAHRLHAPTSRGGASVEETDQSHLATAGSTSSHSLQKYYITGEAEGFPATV
# RUN DESCRIPTION: ATG_ERa_TRANS: Attagene TRANS-FACTORIAL HepG2 Assay for human Estrogen Receptor alpha (ERa) (AID 2282970)
# MEASUREMENT CONDITIONS: HepG2 Attagene TRANS ERa GAL4 reporter, mRNA
Results filed as inconclusive are left out. Activity calls are given as the source filed them. How the source made its calls: active means hit-call score of the fitted dose curve at least 0.9, where 1 is the maximum; inconclusive means response in the unintended direction; inactive means score below 0.9.
Pick one and only one: active, inactive

Field: example entries. Status: answers known.
c1ccc2c(c1)-c1cccc3c1c-2cc1ccccc13 | inactive
OC(CCl)CCl | inactive
CCCCCCCCCCCCCCO | inactive
CCCC(CCC)C(=O)O | inactive
OCc1c[nH]c2ccccc12 | active

Per the assay record, what outcome was assigned to O=C(NO)C1(NS(=O)(=O)c2ccc(Oc3ccc(F)cc3)cc2)CCOCC1 ? inactive

What did this assay record as the result for CCc1ccc(O)c(C(C)(C)C)c1 ? active

Record lookup: outcome of this test for O=C(O)c1ccc2c(c1)nc(C(=O)NC1CCN(C3CC3)CC1)n2Cc1cc(-c2ccc(Cl)s2)on1 ? inactive

Could you kindly confirm the outcome this assay logged for CCn1nc(C)c2c1C(=O)NCC(c1ccc(O)cc1)=N2 ? inactive

Kindly provide the recorded test outcome for the following compound: S=P(N1CC1)(N1CC1)N1CC1 inactive

For CNC(C)=O , which call appears in the assay record? inactive

Recorded test call requested for Cn1c(=O)c2[nH]cnc2n(C)c1=O inactive

Which outcome was entered for the compound O=S(=O)(O)CCC(F)(F)C(F)(F)C(F)(F)C(F)(F)C(F)(F)C(F)(F)F in this test? inactive

###

# RUN DESCRIPTION: APR_HepG2_MitoMembPot_24hr: Apredica 24-hour HepG2 Assay for Mitochondrial Membrane Potential (AID 2282911)
# MEASUREMENT CONDITIONS: imaging, actives raise or lower the signal
The source made the active and inactive calls. The calls were made as follows: active = hit-call score of the fitted dose curve at least 0.9, where 1 is the maximum; inactive = score below 0.9.
Entry note: the call must match one of YES (active), NO (inactive)

Use these answered entries as a reference point.
CCCCCCCCCC | NO
CC(C)CC(C)O (stereo not given) | NO
COS(C)(=O)=O | NO

Given CC(C)CCCCCCOC(=O)C1CCCCC1C(=O)OCCCCCCC(C)C (stereo not given) , state the outcome it received in this test. NO

Tell me the assay call for CCOc1ccc2[nH]cc(C(=O)NCc3ccccc3)c(=O)c2n1 please. NO

Which outcome did this test record for the compound O=S(=O)(O)c1ccc(N=Nc2c(O)ccc3cc(S(=O)(=O)O)ccc23)cc1 ? NO

Any idea what this test logged for CC(C)c1nnc2ccc(-c3ocnc3-c3cc(F)ccc3F)cn12 ? YES

Please share the test call associated with CCCCCOC(C)=O . NO

###

# Read-out: solute carrier (SLC22A1), SLC22A1 (gene 6580)
# RUN DESCRIPTION: LTEA_HepaRG_SLC22A1: Life Technologies and Expression Analysis (LTEA) Assay for solute carrier (SLC22A1) using HepaRG (AID 2283524)
# MEASUREMENT CONDITIONS: mRNA level, 48 h; actives raise or lower the signal
# Protocol: LTEA_HepaRG is a cell based, multiplexed-readout assay that uses HepaRG, a human liver cell line, with measurements taken at 48 hours after chemical dosing on a 96-well plate.LTEA_HepaRG_SLC22A1 is one of 102 assay component(s) measured in the LTEA HepaRG cell culture assay. It is a marker of NR mediated transport.Data from the assay component LTEA_HepaRG_SLC22A1 was analyzed into 1 endpoint. […]
Calls of active or inactive are those of the source. How the source made its calls: active means hit-call score of the fitted dose curve at least 0.9, where 1 is the maximum; inactive means score below 0.9.
Answer with one of the outcomes given here: 1 (active), -1 (inactive)

Some entries whose results are on file:
CCCOc1ccc(S(=O)(=O)N2CCN(CC)CC2)cc1-c1nc2c(CC)n(Cc3ccccn3)nc2c(=O)[nH]1 | -1
CCCCCCCCCC | -1
C=CCc1cc(S(=O)(=O)c2ccc(O)c(CC=C)c2)ccc1O | 1
OC(CCl)CCl | -1
c1ccc2cc3ccccc3cc2c1 | -1

Can you look up the reported call for NC(N)=O for me? -1

Dear all, I need the recorded test outcome for CC(=O)c1ccccc1 , thank you. -1

For CCc1cccc(CC)c1N , what call appears in the results of this test? -1

###

# RUN DESCRIPTION: ATG_EGR_CIS: Attagene CIS-FACTORIAL HepG2 Assay for human Early Growth Response 1 (EGR1) (AID 2282938)
# MEASUREMENT CONDITIONS: HepG2 Attagene CIS-FACTORIAL EGR reporter mRNA; actives raise or lower the signal
Activity calls are given as the source filed them. Rule for the calls: active = hit-call score of the fitted dose curve at least 0.9, where 1 is the maximum; inactive = score below 0.9.
A correct response names exactly one class from active, inactive

Identify the outcome logged in this assay for the molecule shown: C[Si](C)(C)C(F)(F)C(F)(F)C(F)(F)F inactive

###

# TARGET DESC: Estrogen receptor (Homo sapiens) (UniProt P03372)
# RUN DESCRIPTION: CCTE_Deisenroth_AIME_384WELL_LUC_Shift: CCTE's 384-well Estrogen Receptor Transactivation Assay with AIME metabolic competence data shift (ERTA luciferase; difference in metabolism positive and negative), Deisenroth Lab (AID 2284041);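 note: shift is response with S9 minus without S9 so positive means metabolism raised ER signal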
The source made the active and inactive calls. How the source made its calls: active means hit-call score of the fitted dose curve at least 0.9, where 1 is the maximum; inactive means score below 0.9.
READOUT TYPE: outcome

CC(C)CC(C)O (centres undefined) | inactive
CC(C)c1nnc2ccc(-c3ocnc3-c3cc(F)ccc3F)cn12 | inactive
CCn1nc(C)c2c1C(=O)NCC(c1ccc(O)cc1)=N2 | inactive
COS(C)(=O)=O | inactive

###

# Read-out: Human Leukocyte Antigen - DR isotype (HLADR), HLA-DRA (gene 3122)
# RUN DESCRIPTION: BSK_CASM3C_HLADR: BioMAP Diversity Plus: CASM3C Assay for Human Leukocyte Antigen - DR isotype (HLADR) Biomarker Activity (AID 2283043);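 note: cell-surface HLA-DR protein level quantified by ELISA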
# MEASUREMENT CONDITIONS: primary human coronary artery smooth muscle cells; actives raise or lower the signal
Calls of active or inactive are those of the source. The calls were made as follows: active = hit-call score of the fitted dose curve at least 0.9, where 1 is the maximum; inactive = score below 0.9.
Mark one answer only. Choices: active, inactive

// below: answered compounds
COS(C)(=O)=O | inactive
Cc1nccn1-c1ccc(Sc2cccc(C3(C(N)=O)CCOCC3)c2)cc1 | active
c1ccc2c(c1)-c1cccc3c1c-2cc1ccccc13 | inactive

Which outcome did this test record for the compound Nc1ccn([C@@H]2O[C@H](CO)[C@@H](O)[C@@H]2O)c(=O)n1 ? inactive

Please share the test call associated with COc1cc(C(C)C)c2c(c1)S(=O)(=O)N(COc1cc(=O)n3cccc(OCCN4CCCCC4)c3n1)C2=O . inactive

Name the outcome recorded for CCCCCCOC(=O)CC(CC(=O)OCCCCCC)(OC(=O)CCC)C(=O)OCCCCCC in the assay. inactive

# outcome recorded in this test, key = COc1cc2c(c(OC)c1OC)-c1ccc(OC)c(=O)cc1[C@@H](NC(C)=O)CC2 active

Please let me know the test result on file for Cc1ncc([C@@H](CCCCCCc2ccc3c(n2)NCCC3)CC(=O)O)cn1 . inactive

Please state the recorded outcome for this compound: OCCC(F)(F)C(F)(F)C(F)(F)C(F)(F)F inactive

Fill in: this test's call for OCc1c[nH]c2ccccc12 is ___ inactive

# lookup: test call for OCc1ccccc1 inactive
